Where do the numbers come from? From patent US20110263564A1.

- Study target: SIRT1 (Homo sapiens, UniProt Q96EB6)
- Sequence (Q96EB6 1-747): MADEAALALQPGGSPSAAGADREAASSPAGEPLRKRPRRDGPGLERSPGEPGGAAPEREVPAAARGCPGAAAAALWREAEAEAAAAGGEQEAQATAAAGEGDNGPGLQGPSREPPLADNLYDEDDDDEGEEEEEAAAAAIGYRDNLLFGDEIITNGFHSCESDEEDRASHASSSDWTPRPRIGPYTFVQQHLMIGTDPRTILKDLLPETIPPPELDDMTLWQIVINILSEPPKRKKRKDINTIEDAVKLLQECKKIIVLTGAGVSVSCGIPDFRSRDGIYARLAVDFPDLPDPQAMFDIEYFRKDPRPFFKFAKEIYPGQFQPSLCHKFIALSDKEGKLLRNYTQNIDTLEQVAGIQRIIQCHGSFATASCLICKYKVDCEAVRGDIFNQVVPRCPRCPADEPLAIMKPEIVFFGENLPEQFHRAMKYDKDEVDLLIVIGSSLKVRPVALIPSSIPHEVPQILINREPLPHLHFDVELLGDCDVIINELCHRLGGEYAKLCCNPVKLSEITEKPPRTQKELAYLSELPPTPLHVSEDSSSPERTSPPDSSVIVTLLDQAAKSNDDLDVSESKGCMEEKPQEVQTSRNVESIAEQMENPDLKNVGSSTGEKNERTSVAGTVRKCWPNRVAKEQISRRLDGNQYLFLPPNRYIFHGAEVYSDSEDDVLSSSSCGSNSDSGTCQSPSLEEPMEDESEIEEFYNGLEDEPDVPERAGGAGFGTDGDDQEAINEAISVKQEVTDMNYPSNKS
- Test: Mass spectrometry based assay of SIRT1 activity (deacetylation of a p53-based acetylated peptide)
- Assay type: biochemical
- Experimental setup: 10 nM SIRT1, 0.5 μM peptide substrate, 120 μM βNAD+, 25 minutes at 25° C.
Test readout: EC1.5 (concentration of test compound that results in 150% activation of SIRT1)

Example results:
[[record]]
compound = "O=C(NC1CCCc2ccc(-c3cccc(C(F)(F)F)c3F)nc21)c1cnccn1 (centres unmarked) [Compound 256]"
study_target = "SIRT1 (Homo sapiens, UniProt Q96EB6)"
reported = "C (EC1.5>25 μM)"

[[record]]
compound = "O=C(Nc1cccnc1)C1CCCc2ccc(-c3cccc(C(F)(F)F)c3)nc21 (centres unmarked) [Compound 285]"
study_target = "SIRT1 (Homo sapiens, UniProt Q96EB6)"
reported = "C (EC1.5>25 μM)"

[[record]]
compound = "O=C(Nc1ccncc1)C1CCCc2ccc(-c3cccc(C(F)(F)F)c3)nc21 (centres unmarked) [Compound 286]"
study_target = "SIRT1 (Homo sapiens, UniProt Q96EB6)"
reported = "C (EC1.5>25 μM)"

[[record]]
compound = "O=C(NC1CCCc2ccc(-c3ccc(N4CCCC4)cc3)nc21)c1cnccn1 (centres unmarked) [Compound 259]"
study_target = "SIRT1 (Homo sapiens, UniProt Q96EB6)"
reported = "C (EC1.5>25 μM)"


Tell me the measured EC1.5 (concentration of test compound that results in 150% activation of SIRT1) of CC(NC(=O)c1cccc(CN2CCCC2)n1)c1cccc(-c2cccnc2)n1 (centres unmarked) [Compound 220] , please. C (EC1.5>25 μM)

Tell me the measured EC1.5 (concentration of test compound that results in 150% activation of SIRT1) of O=C(NC1CCOc2ccc(-c3cccc(C(F)(F)F)c3)nc21)c1cnccn1 (centres unmarked) [Compound 224] , please. C (EC1.5>25 μM)

Tell me the measured EC1.5 (concentration of test compound that results in 150% activation of SIRT1) of O=C(NC1CCCc2ccc(-c3cccnc3)nc21)c1cnccn1 (centres unmarked) [Compound 246] , please. C (EC1.5>25 μM)

Tell me the measured EC1.5 (concentration of test compound that results in 150% activation of SIRT1) of O=C(NC1CCCc2ccc(-c3cccc(N4CCOCC4)c3)nc21)c1cnccn1 (centres unmarked) [Compound 261] , please. C (EC1.5>25 μM)

Tell me the measured EC1.5 (concentration of test compound that results in 150% activation of SIRT1) of CC(C(=O)Nc1nccs1)c1cccc(-c2cccc(C(F)(F)F)c2)n1 (centres unmarked) [Compound 221] , please. C (EC1.5>25 μM)

Tell me the measured EC1.5 (concentration of test compound that results in 150% activation of SIRT1) of O=C(NC1CCCc2ccc(-c3cc(C(F)(F)F)ccc3F)nc21)c1cnccn1 (centres unmarked) [Compound 251] , please. A (EC1.5<10.0 μM)

Tell me the measured EC1.5 (concentration of test compound that results in 150% activation of SIRT1) of O=C(NC1CCCc2ccc(-c3cccc(C(F)(F)F)c3)nc21)c1cccc(C2CCNC2)c1 (centres unmarked) [Compound 242] , please. A (EC1.5<10.0 μM)
